tested on: VRE; experiment: Broth microdilution MIC, Example 7 (NCL812 and analogues); assay type: cell-based, Enterococcus spp.; settings: isolate VRE 2; 24 hours; 1st and 2nd replicate rows
assayEndpoint: MIC (μg/ml) at 24 hours, VRE 2

Recorded MIC (μg/ml) at 24 hours, VRE 2, per entry:
Cl.N#Cc1ccc(C=NNC(=N)NN=Cc2ccc(C#N)cc2)cc1 | >128 µg/mL
Cl.N=C(N)N/N=C/c1cccc(Cl)c1 | 128 µg/mL
N#Cc1ccccc1/C=N/NC(N)=O | >128 µg/mL
N#Cc1ccc(/C=N/NC(=O)N/N=C/c2ccc(C#N)cc2)cc1 | >128 µg/mL
COc1ccc(/C=N/NC(=O)N/N=C/c2ccc(OC)cc2)cc1 | >128 µg/mL

Quick note, MIC (μg/ml) at 24 hours, VRE 2 for `Cl.N=C(NN=Cc1cccc(F)c1)NN=Cc1cccc(F)c1` landed at 16 µg/mL

Noted for `NC(=O)N/N=C/c1ccc(Cl)cc1` : its MIC (μg/ml) at 24 hours, VRE 2 reads >128 µg/mL

The reported value for `COc1ccc(/C=N/NC(=N)N/N=C/c2ccc(OC)cc2)cc1.Cl` in terms of MIC (μg/ml) at 24 hours, VRE 2 is >128 µg/mL

Measured MIC (μg/ml) at 24 hours, VRE 2 of `Cl.N=C(N/N=C/c1ccccc1C(F)(F)F)N/N=C/c1ccccc1C(F)(F)F` : >128 µg/mL

// sample `Cl.N=C(N/N=C/c1cccc(Cl)c1)N/N=C/c1cccc(Cl)c1` , its MIC (μg/ml) at 24 hours, VRE 2 was 4 µg/mL

// sample `C/C(=N\NC(=N)N/N=C(\C)c1ccc(Cl)cc1)c1ccc(Cl)cc1.Cl` , its MIC (μg/ml) at 24 hours, VRE 2 was 1 µg/mL

Reported MIC (μg/ml) at 24 hours, VRE 2 of `Cl.N#Cc1cccc(/C=N/NC(=N)N)c1` : >128 µg/mL
